testedTarget: SARS-CoV-2 3CL protease (Severe acute respiratory syndrome coronavirus 2)
Assay type: biochemical
Design: unit not given here
conditionDetails: Conc 200 µM; mean response (inhibition) of dose-response curve
valueKind: Avg
// no unit, no text: just the number

Examples with their reported Avg follow.
O=C(CCl)COc1ccc(Cl)cc1	106
CC1C(=O)Nc2ccc(C(=O)CCl)cc21 (stereo not shown)	105.3
Cc1cc(C(=O)CCl)c(C)n1-c1nccs1	108.5

Exercise: Given the entry "CCN(c1ccc(C(=O)CCl)cc1)S(C)(=O)=O" , report its measured Avg.
Key: 87.1

Exercise: Look up Avg for this compound: "N#Cc1ccnc(S)c1"
Key: 106.7

Exercise: Bench note: what Avg did "Cc1cc(C(=O)CCl)c(C)n1-c1ncn[nH]1" show?
Key: 107.2

Exercise: Form field: reported Avg of "C=CS(=O)(=O)c1nc2ccccc2s1"
Key: 112.9

---

testedTarget: SARS-CoV-2 3CL protease (Severe acute respiratory syndrome coronavirus 2, UniProt P0DTD1)
Format: biochemical
Parameters: unit not given here
conditionDetails: Conc 50 µM; average response of dose-response curve
Please use 1.0 for Avg under 90 and 0.0 for everything else, ties included.

These recorded examples may help you get a feel for the data.
O=C(c1ccc(S)nc1)N1CCCC1 [Z235362941]	0.0
NS(=O)(=O)c1ccc(S)nc1 [Z235344787]	0.0
O=C(CCl)c1ccc(N2CCCC2=O)cc1 [Z221603842]	1.0
CC1(C)C(=O)Nc2ccc(C(=O)CCl)cc21 [Z2160878465]	1.0
O=C(CCl)c1csc(N2CCCCC2)n1 [Z2469673977]	1.0
O=C(CCl)c1ccc2c(c1)CCN(C(=O)C(F)(F)F)C2 [Z1723943157]	1.0
Cc1ccccc1CN1CCN(C(=O)CCl)CC1 [Z208155076]	1.0
N#C/C=C/S(=O)(=O)c1ccc(Cl)cc1 [Z1649581806]	1.0

Exercise: Hello, is Avg of the following molecule strictly smaller than 90? O=C(CCl)N1CCOC(c2ccc(F)cc2)C1 (centres unmarked) [Z1562122812]
Key: 0.0

Exercise: Problem: For the molecule O=C(NCCc1ccc(F)cc1)n1ccnc1 [Z235353843] , is Avg under 90?
Key: 1.0

Exercise: Just wondering, is Avg of Cc1cnccc1CCNC(=O)c1cccnc1S [Z1515958452] below 90?
Key: 0.0

---

testedTarget: SARS-CoV-2 3CL protease (Severe acute respiratory syndrome coronavirus 2)
Format: biochemical
Set-up: unit not given here
conditionDetails: Conc 50 µM
# Avg values compiled below
I'd appreciate a reply containing only the number, no unit.

O=C(NCC1(O)CCc2ccccc21)c1cccnc1S (centres unmarked)	96.8

Exercise: Consider the compound shown here: "CC(C)Cc1ncc(CNC(=O)c2cccnc2S)s1" What is its recorded Avg?
Key: 100.8

Exercise: Endpoint output: Avg of "Cc1cc(C(=O)CCl)c(C)n1-c1ccccn1" . Value?
Key: 80.4

Exercise: Look up Avg for this compound: "COC1(CNC(=O)c2cccnc2S)CCOCC1"
Key: 61.8

Exercise: What does the data say about its Avg? Entry: "Cn1cc(CNC(=O)c2cccnc2S)c(C(F)(F)F)n1"
Key: 96.9

---

testedTarget: Urokinase (Homo sapiens)
pIC50: −log10 of the molar value.
Listed here: items and their measured pIC50.

CC(C)C[C@H](NC(=O)OCc1cccc(C(F)(F)F)c1)C(=O)N[C@@H](C[C@@H]1CCNC1=O)C(O)S(=O)(=O)O (some centres unmarked)	< 4.00

Exercise: # returns recorded pIC50 (system: Urokinase (Homo sapiens)) for CC(C)C[C@H](NC(=O)OCc1ccccc1Cl)C(=O)N[C@@H](C[C@@H]1CCNC1=O)C(O)S(=O)(=O)O (some centres unmarked)
Key: < 4.00

---

testedTarget: SARS-CoV-2 3CL protease (Severe acute respiratory syndrome coronavirus 2)
Format: biochemical
Design: unit not given here
conditionDetails: Conc 50 µM
The threshold is inclusive: Avg of exactly 90 counts as T; values below receive F.

O=C(NCCC(O)c1ccccc1)c1cccnc1S (stereo not drawn)	T
O=C(CCl)NC(=O)OCc1ccccc1	F
O=C(NCc1ccc(F)c(CO)c1)c1cccnc1S	T
O=C(NCC1CCCCC1O)c1cccnc1S (stereo not drawn)	F
O=C(NCc1ncccc1F)c1cccnc1S	T

Exercise: Decide: Avg of "NC(=O)CCc1ccc(C(=O)CCl)cc1" >= 90?
Key: F

Exercise: # check: Avg of CCNC(=O)N1CCC(NC(=O)c2cccnc2S)C1 (stereo not drawn) is greater than or equal to 90
Key: T

Exercise: Is Avg at least 90? Consider CC(C)OC1CCC(NC(=O)c2cccnc2S)CC1 (stereo not drawn)
Key: F

Exercise: I'd appreciate it if you could say whether O=C(NCC(CO)c1ccccc1)c1cccnc1S (stereo not drawn) has Avg at least equal to 90.
Key: F

Exercise: Is reported Avg greater than or equal to 90 here: "Cc1nc(CCNC(=O)c2cccnc2S)sc1C"
Key: T

---

testedTarget: UniProt:P0DTD1
Format: biochemical
conditionDetails: 10 µM compound
Label TRUE when Inhibition at 10 µM is strictly below 20%; otherwise label FALSE.

CN(C)C(=O)c1csc(C(=O)CCl)c1	FALSE
CCN(c1ccc(C(=O)CCl)cc1)S(C)(=O)=O	FALSE
O=C(NCc1ncccc1F)c1cccnc1S	TRUE
O=C(CCl)c1csc(N2CCCCC2)n1	FALSE
O=C(c1ccc(S)nc1)N1CCCC1	TRUE

Next up:
Exercise: Does "CC(C)Cc1ncc(CNC(=O)c2cccnc2S)s1" have Inhibition at 10 µM strictly under 20%?
Key: TRUE

---

testedTarget: SARS-CoV-2 3CL protease (Severe acute respiratory syndrome coronavirus 2, UniProt P0DTD1)
Format: biochemical
conditionDetails: 10 µM compound
Inhibition at 10 µM vs 7%: at or above is t, below is f.

Completed entries (count: 4):
Cc1ccc(CNC(=O)n2ccnc2)cc1	t
CCNC(=O)N1CCC(NC(=O)c2cccnc2S)C1 (stereo not drawn)	f
O=C(CCl)NC(=O)OCc1ccccc1	t
O=C(CCl)N1CCOC(c2ccc(F)cc2)C1 (stereo not drawn)	t

Turning to the following molecule.
Exercise: Decide: Inhibition at 10 µM of "Cn1cc(CNC(=O)c2cccnc2S)c(C(F)(F)F)n1" >= 7%?
Key: f

---

testedTarget: SARS-CoV-2 3CL protease (Severe acute respiratory syndrome coronavirus 2, UniProt P0DTD1)
Type: biochemical
Design: unit not given here
conditionDetails: Conc 10 µM; mean response (inhibition) of dose-response curve
# if value of Avg reaches 20, tag yes; if it stays below, tag no

O=C(CCl)c1ccc(F)c(C(=O)CCl)c1	no

Exercise: Decide: is the reported value of Avg for "CSc1cc(C(=O)CCl)ccc1NC(C)=O" equal to or greater than 20?
Key: no

Exercise: hey, is Avg for this one >= 20? "CN(C)C(=O)c1csc(C(=O)CCl)c1"
Key: yes

---

testedTarget: SARS-CoV-2 3CL protease (Severe acute respiratory syndrome coronavirus 2)
Assay type: biochemical
conditionDetails: log of IC50 (µM), dose-response curve fit, Figure S1 and S2
Measured LogIC50, listed per entry for reference.
When you answer, write just the number.

Observe how each entry below is paired with its result.
CC(C)OC1CCC(NC(=O)c2cccnc2S)CC1 (centres unmarked)	1.579
CCNC(=O)N1CCC(NC(=O)c2cccnc2S)C1 (centres unmarked)	1.447
CC(C)Cc1ncc(CNC(=O)c2cccnc2S)s1	1.275
O=C(NCC(CO)c1ccccc1)c1cccnc1S (centres unmarked)	1.51

In the following, a different compound is considered.
Exercise: Please look up its LogIC50: "O=C(NCc1ncccc1F)c1cccnc1S"
Key: 1.1775

---

testedTarget: UniProt:P0DTD1
Format: biochemical
conditionDetails: dose-response curve of fragment hit, Figure S1 and S2
valueKind: pIC50
// pIC50 is dimensionless: -log10 of concentration (M)

Below are worked cases with known answers.
O=C(CCl)N1CCc2[nH]c3ccccc3c2C1 [Z398556976]	4.96
Cc1cnc(=S)[nH]c1 [Z2768165643]	4.89
CC1C(=O)Nc2ccc(C(=O)CCl)cc21 (stereo not drawn) [Z94598687]	4.47

Exercise: I have this compound here, NC(=O)c1csc(C(=O)CCl)c1 [Z802671642] , and I need its recorded pIC50.
Key: 4.37

Exercise: Dear colleague, I am looking for the recorded pIC50 of the following compound: O=C(CCl)c1ccc(F)c(C(=O)CCl)c1 [Z2768504793]
Key: 4.30

Exercise: Consider the compound O=C(CCl)N1CCN(Cc2ccsc2)CC1 [Z2650385668] and give its measured pIC50.
Key: 4.45

Exercise: I would be grateful if you could share the reported pIC50 for N#Cc1ccc(S)nc1 [Z367678594] .
Key: 4.60

Exercise: Would you mind telling me what pIC50 value was observed for Cc1cc(C(=O)CCl)c(C)n1-c1ncn[nH]1 [Z57014347] ?
Key: 4.81

Exercise: Dear colleague, I am looking for the recorded pIC50 of the following compound: O=C(CCl)COc1ccc(Cl)cc1 [Z3236282166]
Key: 4.94

Exercise: Tell me the measured pIC50 of N#Cc1ccnc(S)c1 [Z2687203952] , please.
Key: 4.76

Exercise: I have this compound here, CN(c1ccc(C(=O)CCl)cc1)S(C)(=O)=O [Z57982062] , and I need its recorded pIC50.
Key: 4.87

Exercise: For the compound shown here, CN1Cc2cc(C(=O)CCl)ccc2NC1=O [Z2491497315] , give the reported pIC50.
Key: 4.62
